The entries below come with measured IC50 values attached.
# TESTED ON: CyclinA2/CDK2 (Homo sapiens)
# Construct: purchased CRELUX Protein Services
# ASSAY TEXT: Fluorescence Polarization (FP) competitive binding assay, Cyclin A2/Cdk2;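 further: plates equilibrated two hours at room temperature before polarization reading, IC50 fitted from eight-concentration compound titration curves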
# RUN CONDITIONS: 8 nM Cyclin A2/Cdk2, 2 nM FAM probe; average of 2-3 independent experiments; read-out: Cyclin A FP IC50
*1 amine or outer side, *2 acyl side, *3 side chain or, on linkers, in order; H or OH if unused. Where a SMILES comes first, the peptide text is derived from it. Bridges are numbered along the chain shown (N, C = ends). [ ]: non-standard residue; d: D form. The star is where a group is joined. X52 = CN1C[C@@H]2C[C@H]1CN2c1ccc(-c2ccc(Cl)cc2C[C@@H](C(=O)[*:2])N(C)[*:1])cc1; X101 = CN([C@@H](Cc1cc(Cl)ccc1-c1cnn(C2CS(=O)(=O)C2)c1)C(=O)[*:2])[*:1]; X91 = COc1cc(-c2ccc(Cl)cc2C[C@@H](C(=O)[*:2])N(C)[*:1])ccc1N1CCOCC1; NMehhhLys(Me) = CN([C@@H](CCCCCCCN(C)[*:3])C(=O)[*:2])[*:1]; cBuCO(3,3-F2-1-CF3) = O=C(C1(C(F)(F)F)CC(F)(F)C1)*; Pro(trans-4-F) = O=C(O)[C@@H]1C[C@@H](F)CN1; Gly(cPr) = N[C@H](C(=O)O)C1CC1
Unit nM implied. Number only.

Below: 2 molecules and their reported IC50.
[
  {
    "MOLECULE": "CC(C)C[C@@H]1NC(=O)[C@@H](N(C)C(=O)[C@@H](NC(=O)[C@@H]2C[C@@H](F)CN2C(=O)C2(C(F)(F)F)CC(F)(F)C2)C2CC2)CCCCCCCN(C)C(=O)[C@H](Cc2cc(Cl)ccc2-c2cnn(C3CS(=O)(=O)C3)c2)N(C)C1=O [Example 255] ({cBuCO(3,3-F2-1-CF3)}-[Pro(trans-4-F)][Gly(cPr)][NMehhhLys(Me)]L[X101]; lactam 3-C)",
    "TESTED ON": "CyclinA2/CDK2 (Homo sapiens)",
    "IC50, nM": 20
  },
  {
    "MOLECULE": "COc1cc(-c2ccc(Cl)cc2C[C@H]2C(=O)N(C)CCCCCCC[C@H](N(C)C(=O)[C@@H](NC(=O)[C@@H]3C[C@@H](F)CN3C(=O)C3(C(F)(F)F)CC(F)(F)C3)C3CC3)C(=O)N[C@@H](CC(C)C)C(=O)N2C)ccc1N1CCOCC1 [Example 367] ({cBuCO(3,3-F2-1-CF3)}-[Pro(trans-4-F)][Gly(cPr)][NMehhhLys(Me)]L[X91]; lactam 3-C)",
    "TESTED ON": "CyclinA2/CDK2 (Homo sapiens)",
    "IC50, nM": 20
  }
]

# lookup: IC50 of CC(C)C[C@@H]1NC(=O)[C@@H](N(C)C(=O)[C@@H](NC(=O)[C@@H]2C[C@@H](F)CN2C(=O)C2(C(F)(F)F)CC(F)(F)C2)C2CC2)CCCCCCCN(C)C(=O)[C@H](Cc2cc(Cl)ccc2-c2ccc(N3C[C@@H]4C[C@H]3CN4C)cc2)N(C)C1=O [Example 357] ({cBuCO(3,3-F2-1-CF3)}-[Pro(trans-4-F)][Gly(cPr)][NMehhhLys(Me)]L[X52]; lactam 3-C)
30

* * *

# TESTED ON: CyclinE1/CDK2 (Homo sapiens, UniProt P24864)
# Construct: purchased Eurofins, discovery 14-475
# ASSAY TEXT: Fluorescence Polarization (FP) competitive binding assay, Cyclin E1/Cdk2;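 further: readings taken after two-hour equilibration at room temperature in HEPES buffer with NaCl, DTT, NP-40 and BSA, IC50 fitted from eight-concentration serial dilution series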
# RUN CONDITIONS: 10 nM Cyclin E1/Cdk2, 2 nM FAM probe; average of 2-3 independent experiments; read-out: Cyclin E FP IC50
*1 amine or outer side, *2 acyl side, *3 side chain or, on linkers, in order; H or OH if unused. Where a SMILES comes first, the peptide text is derived from it. Bridges are numbered along the chain shown (N, C = ends). [ ]: non-standard residue; d: D form. The star is where a group is joined. X120 = CN([C@@H](Cc1cc(Cl)ccc1-c1ccn(S(C)(=O)=O)c1)C(=O)[*:2])[*:1]; X147 = CCSc1ccc(-c2ccc(Cl)cc2C[C@@H](C(=O)[*:2])N(C)[*:1])cn1; NMehhhLys(Me) = CN([C@@H](CCCCCCCN(C)[*:3])C(=O)[*:2])[*:1]; cBuCO(3,3-F2-1-CF3) = O=C(C1(C(F)(F)F)CC(F)(F)C1)*; Pro(trans-4-F) = O=C(O)[C@@H]1C[C@@H](F)CN1; Gly(cPr) = N[C@H](C(=O)O)C1CC1
QUANTITY MEASURED: pIC50
In simple prose, pIC50 is minus the logarithm base ten of a concentration in moles per litre.

[
  {
    "COMPOUND": "CCSc1ccc(-c2ccc(Cl)cc2C[C@H]2C(=O)N(C)CCCCCCC[C@H](N(C)C(=O)[C@@H](NC(=O)[C@@H]3C[C@@H](F)CN3C(=O)C3(C(F)(F)F)CC(F)(F)C3)C3CC3)C(=O)N[C@@H](CC(C)C)C(=O)N2C)cn1 [Example 181] ({cBuCO(3,3-F2-1-CF3)}-[Pro(trans-4-F)][Gly(cPr)][NMehhhLys(Me)]L[X147]; lactam 3-C)",
    "pIC50": 5.80
  },
  {
    "COMPOUND": "CC(=O)N1CC=C(c2ccc(Cl)cc2C[C@H]2C(=O)NCCCCC=CC[C@H](N(C)C(=O)[C@@H](NC(=O)[C@@H]3C[C@@H](F)CN3C(=O)C3(C(F)(F)F)CC(F)(F)C3)C3CC3)C(=O)N[C@@H](CC(C)C)C(=O)N2C)CC1",
    "pIC50": 5.21
  }
]

Continue with the compound presented below.
Request the reported pIC50 associated with CC(C)C[C@@H]1NC(=O)[C@@H](N(C)C(=O)[C@@H](NC(=O)[C@@H]2C[C@@H](F)CN2C(=O)C2(C(F)(F)F)CC(F)(F)C2)C2CC2)CCCCCCCN(C)C(=O)[C@H](Cc2cc(Cl)ccc2-c2ccn(S(C)(=O)=O)c2)N(C)C1=O [Example 307] ({cBuCO(3,3-F2-1-CF3)}-[Pro(trans-4-F)][Gly(cPr)][NMehhhLys(Me)]L[X120]; lactam 3-C)
6.36

* * *

Entries and their measured GI50 follow.
# Test system: OVCAR3 cells
# ASSAY TEXT: MTT proliferation assay, OVCAR3;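 further: compound given as an 8- or 10-point series, one day after plating, with exposure covering roughly 3-4 cell doublings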
# Type: cell-based
# RUN CONDITIONS: 5 days compound exposure, 1:3 serial dilution starting at 10 μM
*1 amine or outer side, *2 acyl side, *3 side chain or, on linkers, in order; H or OH if unused. Where a SMILES comes first, the peptide text is derived from it. Bridges are numbered along the chain shown (N, C = ends). [ ]: non-standard residue; d: D form. The star is where a group is joined. X58 = CC(C)C(=O)N1CC=C(c2ccc(Cl)cc2C[C@@H](C(=O)[*:2])N(C)[*:1])CC1; NMehhhLys(Me) = CN([C@@H](CCCCCCCN(C)[*:3])C(=O)[*:2])[*:1]; cBuCO(3,3-F2-1-CF3) = O=C(C1(C(F)(F)F)CC(F)(F)C1)*; Pro(trans-4-F) = O=C(O)[C@@H]1C[C@@H](F)CN1; Gly(cPr) = N[C@H](C(=O)O)C1CC1
# output: bare number, implied unit nM

[
  {
    "COMPOUND": "CC(C)C[C@@H]1NC(=O)[C@@H](N(C)C(=O)[C@@H](NC(=O)[C@@H]2C[C@@H](F)CN2C(=O)C2(C(F)(F)F)CC(F)(F)C2)C2CC2)CC=CCCCCNC(=O)[C@H](Cc2cc(Cl)ccc2-c2cnn(CCO)c2)N(C)C1=O [Example 28]",
    "TESTED ON": "OVCAR3 cells",
    "GI50 (nM)": 170
  }
]

Next:
Endpoint output: GI50 of CC(C)C[C@@H]1NC(=O)[C@@H](N(C)C(=O)[C@@H](NC(=O)[C@@H]2C[C@@H](F)CN2C(=O)C2(C(F)(F)F)CC(F)(F)C2)C2CC2)CCCCCCCN(C)C(=O)[C@H](Cc2cc(Cl)ccc2C2=CCN(C(=O)C(C)C)CC2)N(C)C1=O [Example 143] ({cBuCO(3,3-F2-1-CF3)}-[Pro(trans-4-F)][Gly(cPr)][NMehhhLys(Me)]L[X58]; lactam 3-C) . Value?
20

* * *

# TESTED ON: CyclinB1/CDK1 (Homo sapiens, UniProt P14635)
# Construct: purchased Eurofins, discovery 14-450
# ASSAY TEXT: Fluorescence Polarization (FP) competitive binding assay, Cyclin B1/Cdk1;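 further: fluorescence polarization read after equilibration at room temperature, with IC50 taken from serially diluted dose-response curves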
# RUN CONDITIONS: 10 nM Cyclin B1/Cdk1, 2 nM FAM probe; average of 2-3 independent experiments; read-out: Cyclin B FP IC50
*1 amine or outer side, *2 acyl side, *3 side chain or, on linkers, in order; H or OH if unused. Where a SMILES comes first, the peptide text is derived from it. Bridges are numbered along the chain shown (N, C = ends). [ ]: non-standard residue; d: D form. The star is where a group is joined. NMehhhLys(Me) = CN([C@@H](CCCCCCCN(C)[*:3])C(=O)[*:2])[*:1]; NMe(hhhLys) = CN([C@@H](CCCCCCCN[*:3])C(=O)[*:2])[*:1]; X33 = CN([C@@H](Cc1cc(Cl)cc2c1OCCO2)C(=O)[*:2])[*:1]; cBuCO(3,3-F2-1-CF3) = O=C(C1(C(F)(F)F)CC(F)(F)C1)*; X173 = CN([C@@H](Cc1cc(Cl)cs1)C(=O)[*:2])[*:1]; Pro(trans-4-F) = O=C(O)[C@@H]1C[C@@H](F)CN1; Gly(cPr) = N[C@H](C(=O)O)C1CC1
pIC50 by entry:
Value format note: pIC50 is -log10 of concentration (mol/L); just state the number.

Provide the documented pIC50 with CyclinB1/CDK1 (Homo sapiens, UniProt P14635) as the system for CC(C)C[C@@H]1NC(=O)[C@@H](N(C)C(=O)[C@@H](NC(=O)[C@@H]2C[C@@H](F)CN2C(=O)C2(C(F)(F)F)CC(F)(F)C2)C2CC2)CCCCCCCNC(=O)[C@H](Cc2cc(Cl)cc3c2OCCO3)N(C)C1=O [Example 330] ({cBuCO(3,3-F2-1-CF3)}-[Pro(trans-4-F)][Gly(cPr)][NMe(hhhLys)]L[X33]; lactam 3-C)
7.70

Under CyclinB1/CDK1 (Homo sapiens, UniProt P14635): pIC50 value of CC(C)C[C@@H]1NC(=O)[C@@H](N(C)C(=O)[C@@H](NC(=O)[C@@H]2C[C@@H](F)CN2C(=O)C2(C(F)(F)F)CC(F)(F)C2)C2CC2)CCCCCCCN(C)C(=O)[C@H](Cc2cc(Cl)cs2)N(C)C1=O [Example 426] ({cBuCO(3,3-F2-1-CF3)}-[Pro(trans-4-F)][Gly(cPr)][NMehhhLys(Me)]L[X173]; lactam 3-C) ?
7.70

Recorded values, source patent US20240408169A1.
